test system: HeLa C3; assay: Induction of apoptosis in human HeLaC3 cells assessed as reduction of yellow fluorescent protein/cyan fluorescent protein emission ratio below 3 at 100 uM after 72 hrs by FRET assay; format: functional, cell-based
Activity calls are given as the source filed them. The calls are words filed in the database; no cut-off is given here.
Assign a class; possible classes are active, inactive

Reference set (2 entries):
compound: CC1=C(C)C(=O)C(CCC(C)(O)CCCC(C)CCCC(C)CCCC(C)C)=C(C)C1=O (stereo unspecified)
target-entity: HeLa C3
cat: inactive
--
compound: COC(=O)c1c(O)cc(O)cc1Oc1c(O)c(OC)cc(CC=C(C)C)c1OC
target-entity: HeLa C3
cat: active

Q: What call does the record list for CC(C)=CCC/C(C)=C/CC/C(C)=C/CCC1(C)CCc2c(C)cc(O)c(O)c2O1 (stereo unspecified) ?
Ans: active

Q: What call does the record list for CC1(C)C=Cc2c(c3ccoc3c3oc4c(O)cccc4c23)O1 ?
Ans: active

Q: What call does the record list for CC1(C)C=Cc2c(cc3oc4c(O)c(O)ccc4c(=O)c3c2O)O1 ?
Ans: active

Q: What call does the record list for CC(C)=CCc1cc2c(=O)c3c(O)c(CC=C(C)C)c(O)c(CC=C(C)C)c3oc2c(O)c1O ?
Ans: active

Q: What call does the record list for C=C(C)[C@H]1C/C=C(\C)CC/C=C(\C)CC/C=C(\C)CC1 ?
Ans: active

Q: What call does the record list for CC(C)=CCc1c(O)cc(O)c2c(=O)c3cc4c(c(O)c3oc12)OC(C)(C)C=C4 ?
Ans: active

Q: What call does the record list for CC(C)=CCC/C(C)=C/C[C@H]1C[C@]2(CC=C(C)C)C(=O)[C@@](CC=C(C)C)(C(=O)C(C(=O)c3ccc(O)c(O)c3)=C2O)[C@]1(C)CCC=C(C)C ?
Ans: active

Q: What call does the record list for COc1c(O)c(CC=C(C)C)cc2c1Oc1cc(O)c(CC=C(C)C)c(O)c1C(=O)O2 ?
Ans: active

Q: What call does the record list for CC1=CCCC(C)(C)C1CCC(C)CCCC(C)CCO (stereo unspecified) ?
Ans: inactive
